So I've got a bunch of molecules here, and I need their Clast (last quantifiable concentration) values.
- experiment notes: Plasma pharmacokinetics after single oral dose of Δ8-THCV in MCT oil (LC-MS/MS, non-compartmental analysis)
- Assay type: in vivo, human
- Design: unit not given here
- test settings: 50 mg single oral Δ8-THCV in MCT oil; plasma; Mean (±SD)

CCCc1cc(O)c2c(c1)OC(C)(C)[C@@H]1CC=C(C)C[C@@H]21 [Δ8-THCV, Δ8-tetrahydrocannabivarin]
2.3 (±1.5)
CCCc1cc(O)c2c(c1)OC(C)(C)[C@@H]1CC=C(C(=O)O)C[C@@H]21
166 (±60.3)

Return reported Clast (last quantifiable concentration) values for all items listed beneath this line.
1. CCCc1cc(O)c2c(c1)OC(C)(C)[C@@H]1CCC(C(=O)O)=C[C@@H]21
2. CCCc1cc(O)c2c(c1)OC(C)(C)[C@@H]1CC=C(CO)C[C@@H]21 (racemic) [11-OH-Δ8-THCV, (±)-11-hydroxy-Δ8-THCV]

1. 5.4 (±1.9)
2. 0.9 (±0.3)
